molecular target: smTas1R2:S67I/E142D+smTas1R3 (Saimiri sciureus, UniProt A3QP08, E142D/S67I); assay: Ca2+ mobilization, mutated squirrel monkey receptor; format: cell-based, squirrel monkey (Saimiri sciureus); conditions: HEK293E cells with Gα16-gust44; dose-response, calcium mobilization
Sequence (A3QP08 20-834 S67I/E142D): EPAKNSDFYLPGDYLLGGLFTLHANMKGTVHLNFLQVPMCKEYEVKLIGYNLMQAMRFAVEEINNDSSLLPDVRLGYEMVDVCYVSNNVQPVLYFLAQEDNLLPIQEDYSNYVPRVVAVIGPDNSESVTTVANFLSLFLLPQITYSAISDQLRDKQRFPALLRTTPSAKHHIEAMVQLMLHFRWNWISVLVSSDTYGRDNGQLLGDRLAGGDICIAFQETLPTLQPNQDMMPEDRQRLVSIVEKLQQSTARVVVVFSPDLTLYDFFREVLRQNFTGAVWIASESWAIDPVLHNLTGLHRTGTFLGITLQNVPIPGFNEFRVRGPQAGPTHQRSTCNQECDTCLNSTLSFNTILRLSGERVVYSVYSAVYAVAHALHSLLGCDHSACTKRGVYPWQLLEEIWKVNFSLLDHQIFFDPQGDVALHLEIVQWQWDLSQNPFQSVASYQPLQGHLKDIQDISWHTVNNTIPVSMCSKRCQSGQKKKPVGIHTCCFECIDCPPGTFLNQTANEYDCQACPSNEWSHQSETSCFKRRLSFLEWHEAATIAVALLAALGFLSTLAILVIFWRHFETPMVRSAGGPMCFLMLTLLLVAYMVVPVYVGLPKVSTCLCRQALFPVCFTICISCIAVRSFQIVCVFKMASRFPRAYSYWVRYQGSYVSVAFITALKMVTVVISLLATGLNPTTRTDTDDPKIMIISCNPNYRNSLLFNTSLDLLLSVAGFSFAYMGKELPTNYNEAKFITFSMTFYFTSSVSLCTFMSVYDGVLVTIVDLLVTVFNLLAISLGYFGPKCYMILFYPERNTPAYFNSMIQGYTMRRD
PROPERTY MEASURED: pEC50
# pEC50 = -log10(concentration in molar units)

In: Param readout= pEC50; system= smTas1R2:S67I/E142D+smTas1R3 (Saimiri sciureus, UniProt A3QP08, E142D/S67I); entry= `COC(=O)[C@H](Cc1ccccc1)NC(=O)[C@H](CC(=O)O)NCCC(C)(C)C` ; returns value.
Out: 3.00
